# System: HDAC (HeLa nuclear extract)
# METHOD NOTES: Test for evaluation of HDAC inhibitory activity (HDAC Fluorimetric Assay/Drug Discovery Kit, Biomol)
# Type: biochemical
# CONDITION SET: final concentration of the test compound 30 μM, values more than 100% shown as 100%
PARAMETER MEASURED: Enzyme Inhibitory Rate (%)

CC(C)NC(=O)N(CCN(C)C)Cc1ccc(C(=O)Nc2cscc2N)nc1
100
CC(C)NC(=O)N(CCCN1CCN(C)CC1)Cc1ccc(C(=O)Nc2cscc2N)nc1
97
CCOC(=O)CNC(=O)N(CCCN1CCOCC1)Cc1ccc(C(=O)Nc2cscc2N)nc1
95
CCCNC(=O)N(CCCCN1CCOCC1)Cc1ccc(C(=O)Nc2cscc2N)nc1
96

###

# Tested on: HDAC (HeLa nuclear extract)
# METHOD NOTES: Test for evaluation of HDAC inhibitory activity (HDAC Fluorimetric Assay/Drug Discovery Kit, Biomol)
# Format: biochemical
# CONDITION SET: final concentration of the test compound 30 μM, values more than 100% shown as 100%
PARAMETER MEASURED: Enzyme Inhibitory Rate (%)

CN(C)CCN(Cc1ccc(C(=O)Nc2cscc2N)nc1)C(=O)Nc1ccsc1
100
CN(C)CCCN(Cc1ccc(C(=O)Nc2cscc2N)nc1)C(=O)Nc1ccsc1
100
CN1CCN(CCN(Cc2ccc(C(=O)Nc3cscc3N)nc2)C(=O)NCCc2ccc3c(c2)OCO3)CC1
100
CN(C)CCN(Cc1ccc(C(=O)Nc2cscc2N)nc1)C(N)=O
97
CN(C)CCN(Cc1ccc(C(=O)Nc2cscc2N)nc1)C(=O)Nc1ccc2c(c1)OCCO2
97
Nc1cscc1NC(=O)c1ccc(CN(CCCN2CCOCC2)C(=O)NC2CCCC2)cn1
97
CN(C)CCN(Cc1ccc(C(=O)Nc2cscc2N)nc1)C(=O)Nc1nccs1
97
CN(C)CCN(Cc1ccc(C(=O)Nc2cscc2N)nc1)C(=O)Nc1ccc(F)c(F)c1
97
CN(C)CCN(Cc1ccc(C(=O)Nc2cscc2N)nc1)C(=O)NCCc1ccccc1
96
Nc1cscc1NC(=O)c1ccc(CN(CCCCN2CCOCC2)C(=O)NCCc2ccccc2)cn1
97
Nc1cscc1NC(=O)c1ccc(CN(CCN2CCCC2)C(=O)NC2CCCC2)cn1
100
